Recorded pIC50 values for a group of compounds are listed next.
subject_of_test: Human immunodeficiency virus type 1 protease (Human immunodeficiency virus 1)
experimental_details: Inhibitory activity against recombinant HIV-1 Protease
// scale note: pIC50 = -log10(conc_M); give the bare number

CC(C)[C@H](NC(=O)OCc1ccccc1)C(=O)N[C@@H](Cc1ccccc1)[C@@H](O)[C@H](Cc1ccccc1)NC(=O)[C@H](NC(=O)OCc1ccccc1)C(C)C ... 8.52

Answer with the recorded pIC50 for the compound listed here: CC(=O)N[C@H](C(=O)N[C@@H](Cc1ccccc1)C(O)[C@H](Cc1ccccc1)NC(=O)[C@@H](NC(C)=O)C(C)C)C(C)C
7.92

Where do the numbers come from? From ChEMBL document CHEMBL1125068.
